Molecular target: T1, corticotropin-releasing hormone (CRH) peptide (human and mouse (same sequence), not fully specified)
T1 peptide: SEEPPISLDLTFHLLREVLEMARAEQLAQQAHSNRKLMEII
Experiment: cell-based or functional assay
assay.endpoint: mCrhr1 Luciferase Reporter Assay IC50 (nM)
Quick reminder: number only, in nM, skip the unit.

PR302341-21 (antibody, human IgG1, kappa, V domains shown) VH: QVQLVQSGAEVKKPGASVKVSCKASGYTFTDYFMKWVRQAPGQRLEWMGVINPNNGDIFYNQKFKGRVTITVDKSASTAYMELSSLRSEDTAVYYCARGTDRALFAYWGQGTLVTVSS VL: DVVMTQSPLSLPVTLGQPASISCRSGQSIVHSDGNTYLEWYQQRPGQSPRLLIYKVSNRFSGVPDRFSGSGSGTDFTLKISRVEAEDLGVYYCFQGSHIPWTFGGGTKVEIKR    0.541

Kindly note the recorded mCrhr1 Luciferase Reporter Assay IC50 for PR004290 (antibody, human IgG1, kappa, V domains shown, Series 1; human IgG1 wildtype Fc; also called Hybridoma Clone 28b3) VH: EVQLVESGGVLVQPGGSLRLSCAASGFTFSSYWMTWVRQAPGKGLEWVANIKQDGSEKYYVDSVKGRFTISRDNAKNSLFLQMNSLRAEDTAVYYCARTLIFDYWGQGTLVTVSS VL: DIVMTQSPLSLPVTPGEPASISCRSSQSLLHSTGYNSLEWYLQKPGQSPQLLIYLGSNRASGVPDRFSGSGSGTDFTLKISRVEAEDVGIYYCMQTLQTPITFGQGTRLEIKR , which is 5.24

Kindly note the recorded mCrhr1 Luciferase Reporter Assay IC50 for PR302341-8 (antibody, human IgG1, kappa, V domains shown) VH: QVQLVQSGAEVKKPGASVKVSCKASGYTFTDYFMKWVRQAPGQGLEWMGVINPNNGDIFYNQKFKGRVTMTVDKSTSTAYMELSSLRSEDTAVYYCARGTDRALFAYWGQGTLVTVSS VL: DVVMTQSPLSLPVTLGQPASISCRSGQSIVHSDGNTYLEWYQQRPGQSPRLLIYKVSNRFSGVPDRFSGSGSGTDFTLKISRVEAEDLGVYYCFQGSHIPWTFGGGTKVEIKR , which is 0.357
